All values here come from a melting point compilation (Tetko et al.).

Form field: melting point (one value per entry).

Worked set:
COc1ccc(NC(=S)c2cc(C(C)(C)C)c(O)c(C(C)(C)C)c2)cc1 = 128 to 129 °C
N#Cc1cn(C2CC2)c(=O)[nH]c1=O = 254 to 258 °C

Any idea what its melting point is? The compound is "CCCNC(=O)C(C(F)(F)F)C(F)(F)F"
105 to 107 °C

Any idea what its melting point is? The compound is "Cc1cc(C)c(C(N)=O)c(N)n1"
172 to 174 °C

Any idea what its melting point is? The compound is CC(C)(C)OC(=O)N1OC1c1ccc(C#N)cc1 (stereo unspecified)
57 to 63 °C

Any idea what its melting point is? The compound is "CCOC(=O)c1cnn(C)c1N"
101 to 102 °C

Any idea what its melting point is? The compound is "Nc1cc(Cl)c(Cl)c(Cl)c1Cl"
118 to 119 °C

---

parameter: melting point

Worked set:
COc1ccc(CC(N)=S)cc1OC = 136 to 138 °C
COc1nc(N)nc(SC)n1 = 200 to 202 °C
O=C(O)C12CC3CC(CC(Br)(C3)C1)C2 = 147 to 148 °C

Any idea what its melting point is? The compound is "C=Cc1c(SC)sc(C(=O)O)c1C"
172 to 174 °C

Any idea what its melting point is? The compound is "CN1CCN(c2ccccc2C=O)CC1"
44 to 48 °C

Any idea what its melting point is? The compound is "O=C(Nc1ccc(Br)cc1Br)C(C(F)(F)F)(C(F)(F)F)C(F)(F)F"
228 to 230 °C

Any idea what its melting point is? The compound is "N#Cc1cc(Br)cc(Br)c1N"
152 to 156 °C

Any idea what its melting point is? The compound is "O=C1CCSc2ccc(F)cc21"
94 to 95 °C

Any idea what its melting point is? The compound is "N#CC1(c2ccc(Cl)cc2Cl)CC1"
81 to 85 °C

Any idea what its melting point is? The compound is "Oc1nsc(SCc2ccccc2)n1"
123 to 125 °C

Any idea what its melting point is? The compound is "O=C(O)c1ccc(C(=O)C(F)(F)F)cc1"
178 to 181 °C

Any idea what its melting point is? The compound is "Cn1c(-c2ccc(Cl)cc2)cnc1S"
244 to 247 °C

Any idea what its melting point is? The compound is "CC(=O)NCCCCCCNC(C)=O"
128 to 129 °C

Any idea what its melting point is? The compound is "CN1CCNC(=O)CCSCCC1=O"
185 to 187 °C

Any idea what its melting point is? The compound is "COc1cc(C(=O)O)c([N+](=O)[O-])cc1OC"
195 to 197 °C

Any idea what its melting point is? The compound is "CC(=O)CC(=O)c1c(C)c(C)c(C)c(C)c1C"
73.8 to 75.1 °C

Any idea what its melting point is? The compound is "Nc1ccc(OC2CCOCC2)cc1"
71 to 73 °C

Any idea what its melting point is? The compound is "N[C@@H](CCC(=O)N[C@@H](CCC(=O)O)C(=O)O)C(=O)O"
179 to 182 °C

Any idea what its melting point is? The compound is "CC(=O)c1sc(-c2ccccc2)nc1C"
67 to 68 °C

Any idea what its melting point is? The compound is "O=C(Cl)c1ccc(-n2cccn2)cc1"
127 to 128 °C
